// provenance: ChEMBL document CHEMBL3044680

Test system: Escherichia coli
method: Antimicrobial activity against Escherichia coli at 200 ug/ml after 48 hr by cup-plate method
Assay type: functional
setup.conditions: read-out: IZ
property: zone of inhibition at 200 µg/mL (mm)
Answers are plain numbers, in mm.

The examples below pair each entry with its known result.
* O=C(c1ccc(Nc2nc(-c3ccccc3)nc3ccccc23)cc1)[n+]1nc([S-])sc1-c1ccccc1 | 20
* O=C(c1ccc(Nc2nc(-c3ccccc3)nc3ccccc23)cc1)[n+]1nc([S-])sc1-c1cccc([N+](=O)[O-])c1 | 20

Lab note: each compound below needs its zone of inhibition at 200 µg/mL filled in.
1. O=C(c1ccc(-n2c(-c3ccccc3)nc3ccccc3c2=O)cc1)[n+]1nc([S-])sc1-c1cc([N+](=O)[O-])ccc1Cl
2. O=C(c1ccc(-n2c(-c3ccccc3)nc3ccccc3c2=O)cc1)[n+]1nc([S-])sc1-c1ccccc1

Found:
[19, 28]
